Overview of recorded Kd for various sequences
# SYSTEM UNDER TEST: S100P (Homo sapiens)
# Construct: made in house
# Sequence (P25815 whole entry): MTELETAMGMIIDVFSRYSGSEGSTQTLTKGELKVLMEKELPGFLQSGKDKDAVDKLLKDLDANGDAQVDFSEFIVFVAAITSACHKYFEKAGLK
# TEST NAME: Isothermal titration calorimetry (ITC) of tubulin peptides with S100P
# Type: binding
# EXPERIMENTAL SETUP: ITC, 25°C, 20 mM MES pH 6.1, 50 mM NaCl, 1.0 mM TCEP, 5 mM CaCl2; single site fit; peptide in cell, S100P titrated
No end group written: not given here.
MEASURED METRIC: Kd (µM)

sequence_data="VNAAIATIKTKRTIQFVDWCPTGFKVGINY [VNA]" test_result=62
sequence_data="DICFRTLKLTTPTYGDLNHLVSATMS [DIC]" test_result=9
